melting point overview

smiles-repr	melting point
Cc1ccc(-c2[nH]nc(N3CCN(C)CC3)c2-c2ccncc2)cc1	243 to 246.8 °C
Nc1nccc(-c2cn[nH]c2-c2ccc(F)cc2)n1	273 to 274 °C
CN1CCN(c2n[nH]c(-c3cccs3)c2-c2ccncc2)CC1	199.7 °C (dec.)
Sc1[nH]nc(-c2ccc(Cl)cc2)c1-c1ccncc1	266.3 to 268.9 °C
CC(C)(C)OC(=O)N1CCN(c2n[nH]c(-c3ccc(F)cc3)c2-c2ccncc2)CC1	243 to 244 °C

====

# target-or-system: human p38 kinase alpha (Homo sapiens, UniProt Q16539)
# Construct: The coding region of the human p38a cDNA was obtained by PCR-amplification from RNA isolated from the human monocyte cell line THP.1; GST (N); made in house; host or cells: E. coli DH10B
# Sequence (Q16539 whole entry): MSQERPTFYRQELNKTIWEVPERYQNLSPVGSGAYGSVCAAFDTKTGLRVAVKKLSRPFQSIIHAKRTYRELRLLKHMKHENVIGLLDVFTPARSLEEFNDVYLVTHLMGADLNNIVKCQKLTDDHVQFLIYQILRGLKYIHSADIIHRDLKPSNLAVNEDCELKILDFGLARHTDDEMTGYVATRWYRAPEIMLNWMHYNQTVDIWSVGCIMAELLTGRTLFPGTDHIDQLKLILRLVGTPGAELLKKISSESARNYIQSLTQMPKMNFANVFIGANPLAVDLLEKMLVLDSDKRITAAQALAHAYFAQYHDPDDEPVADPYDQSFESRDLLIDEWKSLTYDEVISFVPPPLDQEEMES
# measurement-notes: p38 kinase in vitro assay, phosphorylation of biotinylated PHAS-I with gamma 32P-ATP
# Type: biochemical
# condition-notes: @ 1.0 uM; read-out: P38 alpha kinase % inhib @ conc.
inhibition at 1 µM overview
quantity: inhibition at 1 µM (%)

smiles-repr	target-or-system	experimental-result
COc1ccc(S(=O)(=O)NCc2[nH]nc(-c3ccc(F)cc3)c2-c2ccncc2)c([N+](=O)[O-])c1	human p38 kinase alpha (Homo sapiens, UniProt Q16539)	78
COc1cc(NC(=O)NCc2[nH]nc(-c3ccc(F)cc3)c2-c2ccncc2)cc(OC)c1OC	human p38 kinase alpha (Homo sapiens, UniProt Q16539)	40
CCOc1ccc2ccccc2c1C(=O)NCc1[nH]nc(-c2ccc(F)cc2)c1-c1ccncc1	human p38 kinase alpha (Homo sapiens, UniProt Q16539)	83
O=C(NCc1[nH]nc(-c2ccc(F)cc2)c1-c1ccncc1)N[C@@H]1C[C@@H]1c1ccccc1	human p38 kinase alpha (Homo sapiens, UniProt Q16539)	57
O=S(=O)(NCc1[nH]nc(-c2ccc(F)cc2)c1-c1ccncc1)c1ccc(F)cc1F	human p38 kinase alpha (Homo sapiens, UniProt Q16539)	60
O=C(NCc1[nH]nc(-c2ccc(F)cc2)c1-c1ccncc1)c1sc2ccccc2c1Cl	human p38 kinase alpha (Homo sapiens, UniProt Q16539)	79

====

# target-or-system: human p38 kinase alpha (Homo sapiens)
# Construct: The coding region of the human p38a cDNA was obtained by PCR-amplification from RNA isolated from the human monocyte cell line THP.1; GST (N); made in house; host or cells: E. coli DH10B
# measurement-notes: p38 kinase in vitro assay, phosphorylation of biotinylated PHAS-I with gamma 32P-ATP
# Type: biochemical
# condition-notes: read-out: P38 alpha kinase IC50
Just a reminder that ties go to Not satisfied: only IC50 strictly below 600 nM counts as Satisfied.

compound	cat
O=S(=O)(NCc1[nH]nc(-c2ccc(F)cc2)c1-c1ccncc1)c1cccc(C(F)(F)F)c1	Satisfied
O=S(=O)(NCc1[nH]nc(-c2ccc(F)cc2)c1-c1ccncc1)c1ccccc1Cl	Satisfied
O=S(=O)(NCc1[nH]nc(-c2ccc(F)cc2)c1-c1ccncc1)c1cc(S(=O)(=O)c2ccccc2)cs1	Satisfied
C[C@@H](NS(=O)(=O)c1ccc(Cl)cc1Cl)c1[nH]nc(-c2ccc(F)cc2)c1-c1ccncc1	Satisfied
Cc1c(C)c(S(=O)(=O)N[C@H](C)c2[nH]nc(-c3ccc(F)cc3)c2-c2ccncc2)c(C)c2c1OC(C)(C)CC2	Not satisfied
C[C@@H](NS(=O)(=O)c1cccc2cccnc12)c1[nH]nc(-c2ccc(F)cc2)c1-c1ccncc1	Not satisfied
CCNC(=O)N[C@H](C)c1[nH]nc(-c2ccc(F)cc2)c1-c1ccncc1	Satisfied
CCCS(=O)(=O)N[C@H](C)c1[nH]nc(-c2ccc(F)cc2)c1-c1ccncc1	Satisfied
FC(F)(F)c1cccc(-c2n[nH]c(C3CCNCC3)c2-c2ccncc2)c1	Satisfied
Cc1cccc(C(=O)NCc2[nH]nc(-c3ccc(F)cc3)c2-c2ccncc2)c1	Not satisfied
O=S(=O)(NCc1[nH]nc(-c2ccc(F)cc2)c1-c1ccncc1)c1c(Cl)cccc1Cl	Satisfied
COc1ccccc1C(=O)NCc1[nH]nc(-c2ccc(F)cc2)c1-c1ccncc1	Satisfied
CC(NS(=O)(=O)c1ccc(C(F)(F)F)cc1)c1[nH]nc(-c2ccc(F)cc2)c1-c1ccncc1 (stereo not shown)	Satisfied
CC(=O)Nc1ccc(S(=O)(=O)NCc2[nH]nc(-c3ccc(F)cc3)c2-c2ccncc2)cc1	Satisfied
C[C@@H](NS(=O)(=O)c1ccccc1C#N)c1[nH]nc(-c2ccc(F)cc2)c1-c1ccncc1	Satisfied
C[C@@H](NS(=O)(=O)c1ccc(C#N)cc1)c1[nH]nc(-c2ccc(F)cc2)c1-c1ccncc1	Satisfied
CN(C)c1ccc(Cc2[nH]nc(-c3ccc(Cl)cc3)c2-c2ccncc2)cc1	Not satisfied
COC(=O)NCc1[nH]nc(-c2ccc(F)cc2)c1-c1ccncc1	Satisfied
C[C@@H](NC(=O)c1cc(F)ccc1F)c1[nH]nc(-c2ccc(F)cc2)c1-c1ccncc1	Satisfied
C[C@@H](NC(=O)N(C)C)c1[nH]nc(-c2ccc(F)cc2)c1-c1ccncc1	Not satisfied
C[C@@H](NC(=O)c1cc(F)cc(F)c1)c1[nH]nc(-c2ccc(F)cc2)c1-c1ccncc1	Satisfied
C[C@@H](NC(=O)C1CCC1)c1[nH]nc(-c2ccc(F)cc2)c1-c1ccncc1	Not satisfied
C[C@@H](NC(=O)c1ccc(Cl)cc1Cl)c1[nH]nc(-c2ccc(F)cc2)c1-c1ccncc1	Satisfied
C#CCN1CCC(c2[nH]nc(-c3ccc(Cl)cc3)c2-c2ccncc2)CC1	Satisfied
C[C@@H](NS(=O)(=O)C(F)(F)F)c1[nH]nc(-c2ccc(F)cc2)c1-c1ccncc1	Not satisfied
C[C@@H](NC(=O)c1ccncc1)c1[nH]nc(-c2ccc(F)cc2)c1-c1ccncc1	Not satisfied
O=C(NCc1[nH]nc(-c2ccc(F)cc2)c1-c1ccncc1)c1cccc(C(F)(F)F)c1	Not satisfied
C=CCOC(=O)N[C@H](C)c1[nH]nc(-c2ccc(F)cc2)c1-c1ccncc1	Not satisfied
Cc1noc(C)c1S(=O)(=O)N[C@H](C)c1[nH]nc(-c2ccc(F)cc2)c1-c1ccncc1	Satisfied
O=C(NCc1[nH]nc(-c2ccc(F)cc2)c1-c1ccncc1)c1ccc(C(F)(F)F)cc1F	Not satisfied
CC(C)=CC(=O)N[C@H](C)c1[nH]nc(-c2ccc(F)cc2)c1-c1ccncc1	Not satisfied
